target: Protein cereblon/Histone-lysine N-methyltransferase EZH2 (Homo sapiens) (UniProt Q15910+Q96SW2); test: Protac activity at CRBN E3 ligase/EZH2 in human 22Rv1 cells assessed as degradation of EZH2 at 1 uM incubated for 48 hrs by Western blot analysis; type: cell-based
Sequence (Q15910 whole entry, looked up): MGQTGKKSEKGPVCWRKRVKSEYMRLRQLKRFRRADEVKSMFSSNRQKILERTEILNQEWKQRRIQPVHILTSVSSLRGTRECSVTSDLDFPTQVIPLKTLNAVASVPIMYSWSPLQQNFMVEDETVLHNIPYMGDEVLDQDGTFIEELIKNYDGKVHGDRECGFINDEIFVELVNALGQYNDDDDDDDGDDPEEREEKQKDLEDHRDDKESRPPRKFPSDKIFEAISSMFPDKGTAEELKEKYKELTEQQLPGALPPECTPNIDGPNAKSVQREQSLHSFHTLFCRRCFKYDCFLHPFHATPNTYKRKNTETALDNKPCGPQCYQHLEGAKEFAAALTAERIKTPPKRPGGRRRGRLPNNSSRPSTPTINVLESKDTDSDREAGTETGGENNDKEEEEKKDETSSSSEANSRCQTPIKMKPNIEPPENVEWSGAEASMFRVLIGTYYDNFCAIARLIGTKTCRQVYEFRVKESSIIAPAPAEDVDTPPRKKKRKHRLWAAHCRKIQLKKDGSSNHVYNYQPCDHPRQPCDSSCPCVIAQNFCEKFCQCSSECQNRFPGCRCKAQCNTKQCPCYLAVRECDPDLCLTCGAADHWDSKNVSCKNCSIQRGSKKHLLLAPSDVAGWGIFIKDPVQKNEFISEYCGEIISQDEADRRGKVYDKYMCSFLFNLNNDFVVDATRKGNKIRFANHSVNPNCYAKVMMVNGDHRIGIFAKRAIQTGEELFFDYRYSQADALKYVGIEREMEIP
Sequence (Q96SW2 whole entry, looked up): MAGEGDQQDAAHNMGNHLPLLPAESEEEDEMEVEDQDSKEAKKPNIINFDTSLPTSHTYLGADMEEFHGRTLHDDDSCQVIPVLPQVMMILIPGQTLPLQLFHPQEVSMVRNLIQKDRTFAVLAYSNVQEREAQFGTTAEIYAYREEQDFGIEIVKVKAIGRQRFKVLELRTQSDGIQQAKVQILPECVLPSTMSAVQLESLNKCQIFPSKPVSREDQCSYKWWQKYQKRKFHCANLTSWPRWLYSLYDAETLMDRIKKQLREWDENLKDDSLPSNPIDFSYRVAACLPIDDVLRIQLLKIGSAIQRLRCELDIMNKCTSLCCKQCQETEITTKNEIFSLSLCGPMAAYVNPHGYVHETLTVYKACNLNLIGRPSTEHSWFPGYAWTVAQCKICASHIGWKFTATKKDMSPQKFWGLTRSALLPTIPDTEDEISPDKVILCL
Calls of active or inactive are those of the source. The rule behind the calls is not given here.
test-readout: Activity

Sample records with Activity:
[
  {
    "compound": "CCN(c1cc(-c2ccc(C(=O)NCCCCCCCCNC(=O)COc3cccc4c3C(=O)N(C3CCC(=O)NC3=O)C4=O)cc2)cc(C(=O)NCc2c(C)cc(C)[nH]c2=O)c1C)C1CCOCC1 (stereo unspecified)",
    "Activity": "inactive"
  },
  {
    "compound": "CCN(c1cc(-c2ccc(C(=O)NCCOCCNc3cccc4c3C(=O)N(C3CCC(=O)NC3=O)C4=O)cc2)cc(C(=O)NCc2c(C)cc(C)[nH]c2=O)c1C)C1CCOCC1 (stereo unspecified)",
    "Activity": "inactive"
  },
  {
    "compound": "CCN(c1cc(-c2ccc(C(=O)NCCOCCOCCOc3cccc4c3C(=O)N(C3CCC(=O)NC3=O)C4=O)cc2)cc(C(=O)NCc2c(C)cc(C)[nH]c2=O)c1C)C1CCOCC1 (stereo unspecified)",
    "Activity": "inactive"
  },
  {
    "compound": "CCN(c1cc(-c2ccc(C(=O)NCCCCNc3cccc4c3C(=O)N(C3CCC(=O)NC3=O)C4=O)cc2)cc(C(=O)NCc2c(C)cc(C)[nH]c2=O)c1C)C1CCOCC1 (stereo unspecified)",
    "Activity": "inactive"
  },
  {
    "compound": "CCN(c1cc(-c2ccc(C(=O)NCCOCCOCCOCCOc3cccc4c3C(=O)N(C3CCC(=O)NC3=O)C4=O)cc2)cc(C(=O)NCc2c(C)cc(C)[nH]c2=O)c1C)C1CCOCC1 (stereo unspecified)",
    "Activity": "inactive"
  }
]

Here is another compound to look at.
Given item CCN(c1cc(-c2ccc(C(=O)NCCCCCCNC(=O)COc3cccc4c3C(=O)N(C3CCC(=O)NC3=O)C4=O)cc2)cc(C(=O)NCc2c(C)cc(C)[nH]c2=O)c1C)C1CCOCC1 (stereo unspecified) , the value recorded as its Activity is inactive
